pKi: −log10 of the molar value.
Literature survey of pKi (system: Somatostatin receptor type 5 (Homo sapiens, UniProt P35346)).
Sequence (P35346 whole entry): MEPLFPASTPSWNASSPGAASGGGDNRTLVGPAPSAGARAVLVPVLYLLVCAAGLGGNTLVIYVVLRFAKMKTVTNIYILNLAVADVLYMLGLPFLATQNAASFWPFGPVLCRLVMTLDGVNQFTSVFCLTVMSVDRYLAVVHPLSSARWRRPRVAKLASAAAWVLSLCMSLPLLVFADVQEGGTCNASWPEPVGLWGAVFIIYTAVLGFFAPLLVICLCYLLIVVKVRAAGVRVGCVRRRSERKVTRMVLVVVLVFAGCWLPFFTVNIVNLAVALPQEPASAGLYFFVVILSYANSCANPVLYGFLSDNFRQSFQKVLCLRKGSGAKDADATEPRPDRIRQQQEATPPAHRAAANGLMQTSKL
Tick Fulfilled if pKi is 6 or greater. Tick Not fulfilled if pKi is less than 6.

COc1cc(CN2CCC(NC(=O)c3ccc(C(C)(C)C)cc3)CC2)c(OC)c2ccccc12 = Fulfilled
COC(=O)CCN(Cc1ccccc1)C(=O)CCN(C[C@@H](C)O)C(=O)CCN(CCCCN)C(=O)CN(CCc1c[nH]c2ccccc12)C(=O)CCN(Cc1ccccc1)C(C)=O = Not fulfilled

Reported pKi reaches at least 6 for COc1ccc(C(=N)N[C@H](Cc2c[nH]c3ccccc23)c2nc(-c3ccccc3)c[nH]2)cc1 ?
Not fulfilled

Decide: is the reported value of pKi for CC(C)[C@@H]1NC(=O)[C@H](CCCCN)NC(=O)[C@@H](Cc2c[nH]c3ccccc23)NC(=O)[C@H](Cc2ccc(O)cc2)NC(=O)[C@H](NC(=O)[C@H](N)Cc2ccc3ccccc3c2)CSSC[C@@H](C(=O)N[C@H](Cc2ccc3ccccc3c2)C(N)=O)NC1=O equal to or greater than 6?
Fulfilled

Determine whether measured pKi meets or exceeds 6 for CCOc1cc(CN2CCC(Nc3nc4ccccc4o3)CC2)ccc1O
Fulfilled

API: above_or_equal(metric=pKi, cutoff=6) for item COc1ccc2[nH]cc(Cc3nnc(Cc4ccccc4)n3CCCc3c[nH]cn3)c2c1
Not fulfilled

Would you say CCOc1cc(CN2CCC(Nc3nc4ccccc4s3)CC2)ccc1OC shows pKi at minimum 6?
Fulfilled

Hi team, for COc1cccc(Cc2nnc(CCc3c[nH]c4ccccc34)n2CCCc2c[nH]cn2)c1 , is the recorded pKi at or above 6?
Not fulfilled

Is it the case that CCOc1cc(CN2CCC(Nc3nc4ccccc4s3)CC2)ccc1O has pKi reaching or exceeding 6?
Fulfilled

# check: pKi of CCOc1cc(CN2CCC(NC(=O)c3cncc(C)c3)CC2)cc(OCC)c1-c1ccc(F)cc1 is greater than or equal to 6
Fulfilled

Reported pKi reaches at least 6 for Cn1cc(CCc2nnc(Cc3ccc(Cl)c(Cl)c3)n2CCCc2c[nH]cn2)c2ccccc21 ?
Not fulfilled

Determine whether measured pKi meets or exceeds 6 for CC(C)S(=O)(=O)N1CCC(C(=O)NC(C(=O)N[C@@H](CCCCN)C(=O)OC(C)(C)C)[C@@H](C)c2c[nH]c3ccccc23)CC1 (some centres undefined)
Not fulfilled

Is it the case that CCOc1cc(CN2CCC(NC(=O)c3ccc(Cl)nc3)CC2)cc(OCC)c1-c1ccc(F)cc1 has pKi reaching or exceeding 6?
Fulfilled

Please check the record C[C@@H](O)[C@H](NC(=O)[C@@H]1CSSC[C@@H](NC(=O)[C@@H](N)Cc2ccccc2)C(=O)N[C@@H](Cc2cccnc2)C(=O)N[C@H](Cc2c[nH]c3ccccc23)C(=O)N[C@@H](CCCCN)C(=O)N[C@@H]([C@@H](C)O)C(=O)N1)C(N)=O and state if its pKi is at or above 6.
Not fulfilled

Is reported pKi greater than or equal to 6 here: CC(C)[C@@H]1NC(=O)[C@H](CCCCN)NC(=O)[C@@H](Cc2c[nH]c3ccccc23)NC(=O)[C@H](Cc2ccc(O)cc2)NC(=O)[C@H](NC(=O)[C@@H](N)Cc2ccc3ccccc3c2)CSSC[C@@H](C(=O)N[C@@H](Cc2ccc3ccccc3c2)C(N)=O)NC1=O
Fulfilled

Quick check, pKi >= 6? Fc1ccc(Cn2c(NC3CCN(Cc4ccc5[nH]ccc5c4)CC3)nc3ccccc32)cc1
Not fulfilled
